tested on: L1210 leukemia ip in BDF1 mice, survival T/C; assay: NCI In Vivo Anticancer Drug Screen. Data for tumor model L1210 Leukemia (intraperitoneal) in B6D2F1 (BDF1) mice; conditions: endpoint: mean survival time; dose: 200.0 mg/kg/injection; schedule: Q04DX003 (ip); vehicle: saline; higher = longer survival
Toxic doses and inconclusive results are not listed.

>  <compound>
CC1CCOC(C)O1 (stereo not drawn)

>  <assay.system>
L1210 leukemia ip in BDF1 mice, survival T/C

>  <T/C>
94 % of control

$$$$
>  <compound>
CC1C(=O)Nc2ccccc2N1C(=O)CN1CCCC1 (stereo not drawn)

>  <assay.system>
L1210 leukemia ip in BDF1 mice, survival T/C

>  <T/C>
96 % of control

$$$$
>  <compound>
S=C([S-])N(Cc1ccccc1)Cc1ccccc1.S=C([S-])N(Cc1ccccc1)Cc1ccccc1.[Zn]

>  <assay.system>
L1210 leukemia ip in BDF1 mice, survival T/C

>  <T/C>
97 % of control

$$$$
>  <compound>
CCOC(=O)C(=CNc1cnc(SC)[nH]c1=O)C(=O)OCC

>  <assay.system>
L1210 leukemia ip in BDF1 mice, survival T/C

>  <T/C>
93 % of control

$$$$
>  <compound>
C=CC1CCC2OC(=O)C(=C)C2C1 (stereo not drawn)

>  <assay.system>
L1210 leukemia ip in BDF1 mice, survival T/C

>  <T/C>
95 % of control

$$$$
>  <compound>
CCCCCSC

>  <assay.system>
L1210 leukemia ip in BDF1 mice, survival T/C

>  <T/C>
105 % of control

$$$$
>  <compound>
CC1(C(N)=O)OCCO1

>  <assay.system>
L1210 leukemia ip in BDF1 mice, survival T/C

>  <T/C>
96 % of control

$$$$
>  <compound>
COc1ccc(-c2nc(SCc3ccc(Cl)cc3)[nH]c(=O)c2CCO)cc1

>  <assay.system>
L1210 leukemia ip in BDF1 mice, survival T/C

>  <T/C>
95 % of control

$$$$
>  <compound>
CCN(CC)CCOC(=O)Nc1ccc(Cl)cc1

>  <assay.system>
L1210 leukemia ip in BDF1 mice, survival T/C

>  <T/C>
98 % of control

$$$$
>  <compound>
CCOC(=O)CCCSCCCC(=O)OCC

>  <assay.system>
L1210 leukemia ip in BDF1 mice, survival T/C

>  <T/C>
98 % of control

$$$$
>  <compound>
O=S(=O)(O)c1cc(O)c(S(=O)(=O)O)cc1O

>  <assay.system>
L1210 leukemia ip in BDF1 mice, survival T/C

>  <T/C>
92 % of control

$$$$
>  <compound>
CCC([N+](=O)[O-])S(=O)(=O)c1ccc(C)cc1 (stereo not drawn)

>  <assay.system>
L1210 leukemia ip in BDF1 mice, survival T/C

>  <T/C>
100 % of control

$$$$
>  <compound>
CNCC(SC)c1ccc(O)c(O)c1 (stereo not drawn)

>  <assay.system>
L1210 leukemia ip in BDF1 mice, survival T/C

>  <T/C>
114 % of control

$$$$

----------
system: L1210 leukemia ip in BDF1 mice, survival T/C; experiment: NCI In Vivo Anticancer Drug Screen. Data for tumor model L1210 Leukemia (intraperitoneal) in B6D2F1 (BDF1) mice; settings: endpoint: mean survival time; dose: 400.0 mg/kg/injection; schedule: Q01DX001 (ip); vehicle: Klucel (hydroxypropylcellulose) (HPC); higher = longer survival
Toxic doses and inconclusive results are not listed.
Measured T/C values are reported for all entries that follow.

>  <molecule>
COC(=O)C1C2C=CC(C2=C(c2ccccc2)c2ccccc2)C1C(=O)OC (centres undefined)

>  <assay.system>
L1210 leukemia ip in BDF1 mice, survival T/C

>  <T/C>
92 % of control

$$$$
>  <molecule>
O=C1NC(=O)C(c2ccccc2Cl)N1 (centres undefined)

>  <assay.system>
L1210 leukemia ip in BDF1 mice, survival T/C

>  <T/C>
103 % of control

$$$$
>  <molecule>
O=C(OCCCl)c1ccccc1

>  <assay.system>
L1210 leukemia ip in BDF1 mice, survival T/C

>  <T/C>
98 % of control

$$$$
>  <molecule>
CC12CCC(C(C(=O)C3C(=O)C4(C)CCC3C4(C)C)C1=O)C2(C)C (centres undefined)

>  <assay.system>
L1210 leukemia ip in BDF1 mice, survival T/C

>  <T/C>
113 % of control

$$$$
